Reference source for all entries: paper PMC4081072

Biological target: T1, Nrd1 307-491 R405A (Saccharomyces cerevisiae, UniProt P53617 307-491, R405A)
T1 sequence: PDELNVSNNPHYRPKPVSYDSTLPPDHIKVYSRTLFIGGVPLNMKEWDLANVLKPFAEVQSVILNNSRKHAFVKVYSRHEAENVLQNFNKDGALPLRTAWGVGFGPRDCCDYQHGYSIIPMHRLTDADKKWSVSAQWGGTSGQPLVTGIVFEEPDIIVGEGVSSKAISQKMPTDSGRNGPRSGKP
Assay: fluorescence anisotropy; FA: 10 nM RNA, 50 mM sodium phosphate pH 8, 150 mM NaCl, 10 mM beta-mercaptoethanol, 20 C (protein stock in 300 mM NaCl); NMR: same buffer with 300 mM NaCl, 20
Details: protein: recombinant; tags: C-terminal His6; label: 5' fluorescein or TAMRA (FA); unlabeled (NMR)
MEASURED_PARAMETER: Kd (µM)
Supply the numeric figure in µM, leaving out any unit text.

Query: What does the record list as Kd for GUAA (ssRNA) ?
Response: 17.3
